These data points were gathered from patent US20240251785A1.

target: recombinant tick kinin receptor (BMLK3) (Rhipicephalus microplus, UniProt Q9NHA4); assay: Dose-response dual-addition calcium fluorescence assay on BMLK3 cells; format: cell-based; conditions: BMLK3 cells, Rhimi-K-1 1 μmol L^−1
Sequence (Q9NHA4 entry or part of it): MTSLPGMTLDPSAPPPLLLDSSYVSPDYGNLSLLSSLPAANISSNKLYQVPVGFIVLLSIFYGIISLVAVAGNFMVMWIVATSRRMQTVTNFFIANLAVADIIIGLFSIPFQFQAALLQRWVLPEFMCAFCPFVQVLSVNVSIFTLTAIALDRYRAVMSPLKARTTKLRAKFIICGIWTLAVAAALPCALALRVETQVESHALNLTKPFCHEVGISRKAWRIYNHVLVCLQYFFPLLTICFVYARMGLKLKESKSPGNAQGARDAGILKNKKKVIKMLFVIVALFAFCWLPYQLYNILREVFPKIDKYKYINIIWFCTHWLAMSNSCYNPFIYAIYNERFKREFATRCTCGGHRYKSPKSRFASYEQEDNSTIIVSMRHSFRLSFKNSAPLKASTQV
MEASUREMENT TYPE: activity type in dose-response assay, in words

# MOLECULE, TGT, OBS VALUE
records = [
    ("CCCC[n+]1c(/C=C2/C=CN(CC)c3ccc(C)cc32)ccc2ccccc21 [SACC-0048555]", "recombinant tick kinin receptor (BMLK3) (Rhipicephalus microplus, UniProt Q9NHA4)", "full agonist"),
    ("CSc1nc2ccc(NS(=O)(=O)c3ccc(Cl)s3)cc2s1 [SACC-0099442]", "recombinant tick kinin receptor (BMLK3) (Rhipicephalus microplus, UniProt Q9NHA4)", "full agonist"),
    ("C/C(CCC(C)C)=N\\N=C(/S)NCc1ccccc1 [SACC-0018618]", "recombinant tick kinin receptor (BMLK3) (Rhipicephalus microplus, UniProt Q9NHA4)", "full agonist"),
]

###

biological target: recombinant tick kinin receptor (BMLK3) (Rhipicephalus microplus, UniProt Q9NHA4); test: Dose-response dual-addition calcium fluorescence assay on BMLK3 cells; assay type: cell-based; conditions: second addition Rhimi-K-1 1 μmol L^−1; read-out: BMLK3 IC50
pIC50: −log10 of the molar value.

# COMPOUND, pIC50
rows = [
    ("CC(=O)c1cc(C(=O)N[C@H](C)c2nc(-c3cccnc3)n[nH]2)cs1", 5.85),
    ("C/C(CCC(C)C)=N\\N=C(/S)NCc1ccccc1", 5.37),
    ("COc1ccccc1NC(=O)c1cc2ccccc2cc1OCc1nnnn1C1CC1", 5.73),
    ("Cc1nc(C)c(C(=O)N(Cc2ccco2)C2CCN(c3ccc4c(c3)OCO4)CC2)s1", 5.51),
    ("CC1=C(Cc2ccccc2)C(C)Nc2ccccc2N1 (centres unmarked)", 5.34),
]

###

Reported IC50 by item:
target: recombinant tick kinin receptor (BMLK3) (Rhipicephalus microplus); assay: Dose-response dual-addition calcium fluorescence assay on BMLK3 cells; assay type: cell-based; conditions: second addition Rhimi-K-1 1 μmol L^−1; read-out: BMLK3 IC50

# COMPOUND, CENSORING OPERATOR, IC50, nM
records = [
    ("O=C(O)COc1ccccn1 [SACC-0126930]", ">", 25000),
    ("COc1ccccc1NC(=O)c1cn(CCC#N)nc1-c1ccc(C)c(C)c1 [SACC-0095111]", "=", 3320),
    ("O=C(Nc1ccc(I)cc1)C(Cl)(Cl)Cl [SACC-0062945]", "=", 128),
    ("Cc1cc(C(C)(C)C)cc(C)c1CSC(=N)N [SACC-0029825]", "<", 28.5),
    ("CCCCCCCCn1c2c(c(=N)c3c1CCC3)CCCC2 [SACC-0050177]", ">", 25000),
    ("NC(N)=N/C(N)=N\\c1ccc(Br)cc1 [SACC-0108986]", "=", 363),
    ("Cc1cc2ncn(CCCCSc3ccccc3)c2cc1C [SACC-0025692]", "=", 765),
]

###

molecular target: recombinant tick kinin receptor (BMLK3) (Rhipicephalus microplus); assay: Dose-response dual-addition calcium fluorescence assay on BMLK3 cells; format: cell-based; conditions: first addition, 20 concentrations 28 nM-25 μM; read-out: BMLK3 EC50
pEC50: −log10 of the molar value.

# COMPOUND, TGT, CENSORING OPERATOR, pEC50
rows = [
    ("Cc1cc(C(C)(C)C)cc(C)c1CSC(=N)N", "recombinant tick kinin receptor (BMLK3) (Rhipicephalus microplus)", "=", 5.16),
    ("O=C(CSC1=NCCS1)c1ccc(Cl)cc1", "recombinant tick kinin receptor (BMLK3) (Rhipicephalus microplus)", "=", 6.30),
    ("CCN(CC)c1ccc2cc(C(N)=O)c(=NNC(=O)c3cccs3)oc2c1", "recombinant tick kinin receptor (BMLK3) (Rhipicephalus microplus)", "<", 4.60),
    ("C=C(NNC(=S)Nc1c(C)cccc1C)c1cc2ccccc2o1", "recombinant tick kinin receptor (BMLK3) (Rhipicephalus microplus)", "=", 5.24),
    ("Cc1cc(N=CN(C)C)c2ccccc2n1", "recombinant tick kinin receptor (BMLK3) (Rhipicephalus microplus)", "=", 6.13),
    ("CC1(C)CSC(=NCc2ccccc2)N1C(=O)Cc1noc2ccccc12", "recombinant tick kinin receptor (BMLK3) (Rhipicephalus microplus)", "=", 5.05),
    ("C/C(CCC(C)C)=N\\N=C(/S)NCc1ccccc1", "recombinant tick kinin receptor (BMLK3) (Rhipicephalus microplus)", "<", 4.60),
    ("CCOc1ccc(NC(=N)/N=c2/nc(C(F)(F)F)cc(C)[nH]2)cc1", "recombinant tick kinin receptor (BMLK3) (Rhipicephalus microplus)", "=", 5.34),
    ("Cc1cc2ncn(CCCCSc3ccccc3)c2cc1C", "recombinant tick kinin receptor (BMLK3) (Rhipicephalus microplus)", "<", 4.60),
    ("CCOC(=O)c1[nH]c2ccc(Br)cc2c1N=C(C)N(C)C", "recombinant tick kinin receptor (BMLK3) (Rhipicephalus microplus)", "=", 5.17),
    ("Cc1ccc(-c2ccsc2C(=O)Nc2ccc3c(c2)CCO3)cc1", "recombinant tick kinin receptor (BMLK3) (Rhipicephalus microplus)", "=", 5.53),
    ("CCNc1nc(NCc2ccco2)c2ccccc2n1", "recombinant tick kinin receptor (BMLK3) (Rhipicephalus microplus)", "=", 6.05),
    ("O=C(Nc1ccc(I)cc1)C(Cl)(Cl)Cl", "recombinant tick kinin receptor (BMLK3) (Rhipicephalus microplus)", ">", 7.55),
    ("CC(C)(C)c1ccc(C(=O)NNC(=S)NC(=O)c2cccnc2)cc1", "recombinant tick kinin receptor (BMLK3) (Rhipicephalus microplus)", "=", 5.36),
    ("COc1ccccc1NC(=O)c1cc2ccccc2cc1OCc1nnnn1C1CC1", "recombinant tick kinin receptor (BMLK3) (Rhipicephalus microplus)", "=", 6.01),
    ("COC(=O)c1cc2c(s1)Oc1cc(C(F)(F)F)ccc1C(=S)N2", "recombinant tick kinin receptor (BMLK3) (Rhipicephalus microplus)", "=", 5.83),
    ("CC(=O)c1cc(C(=O)N[C@H](C)c2nc(-c3cccnc3)n[nH]2)cs1", "recombinant tick kinin receptor (BMLK3) (Rhipicephalus microplus)", "=", 5.75),
    ("CCCC[n+]1c(/C=C2/C=CN(CC)c3ccc(C)cc32)ccc2ccccc21", "recombinant tick kinin receptor (BMLK3) (Rhipicephalus microplus)", "=", 5.05),
    ("NC(N)=N/C(N)=N\\c1ccc(Br)cc1", "recombinant tick kinin receptor (BMLK3) (Rhipicephalus microplus)", "=", 6.16),
    ("CC1=C(Cc2ccccc2)C(C)Nc2ccccc2N1 (stereo not shown)", "recombinant tick kinin receptor (BMLK3) (Rhipicephalus microplus)", "=", 6.18),
    ("COc1ccccc1NC(=O)c1cn(CCC#N)nc1-c1ccc(C)c(C)c1", "recombinant tick kinin receptor (BMLK3) (Rhipicephalus microplus)", "<", 4.60),
    ("C=CCn1cnnc1SCC1CC1(Cl)Cl (stereo not shown)", "recombinant tick kinin receptor (BMLK3) (Rhipicephalus microplus)", "=", 6.61),
    ("CN1c2ccccc2Oc2nnc(Cl)cc21", "recombinant tick kinin receptor (BMLK3) (Rhipicephalus microplus)", "=", 5.36),
    ("CCCc1cc(-c2cc(O)n3nc(C)c(CC)c3n2)no1", "recombinant tick kinin receptor (BMLK3) (Rhipicephalus microplus)", "=", 5.38),
    ("Cc1n[nH]c(C)c1N1C(=O)c2cccc3c(N4CCCCCC4)ccc(c23)C1=O", "recombinant tick kinin receptor (BMLK3) (Rhipicephalus microplus)", "<", 4.60),
    ("O=C(O)COc1ccccn1", "recombinant tick kinin receptor (BMLK3) (Rhipicephalus microplus)", ">", 7.55),
    ("CCCCCCCCn1c2c(c(=N)c3c1CCC3)CCCC2", "recombinant tick kinin receptor (BMLK3) (Rhipicephalus microplus)", "=", 5.15),
    ("Cc1nc(C)c(C(=O)N(Cc2ccco2)C2CCN(c3ccc4c(c3)OCO4)CC2)s1", "recombinant tick kinin receptor (BMLK3) (Rhipicephalus microplus)", "=", 4.88),
    ("O=C(O)COc1ccc(Br)cc1/C=N/Nc1cccc2cccnc12", "recombinant tick kinin receptor (BMLK3) (Rhipicephalus microplus)", "=", 5.24),
    ("O=C1C=CC(Nc2ccc([N+](=O)[O-])cc2)C1Nc1ccc([N+](=O)[O-])cc1 (stereo not shown)", "recombinant tick kinin receptor (BMLK3) (Rhipicephalus microplus)", "=", 6.75),
    ("Cc1cccc(NC(=O)c2c(F)c(F)c(F)c(F)c2F)n1", "recombinant tick kinin receptor (BMLK3) (Rhipicephalus microplus)", "=", 5.11),
]

###

target: recombinant tick kinin receptor (BMLK3) (Rhipicephalus microplus, UniProt Q9NHA4); assay: Dose-response dual-addition calcium fluorescence assay on BMLK3 cells; type: cell-based; settings: Table 5 analogs, first addition; read-out: BMLK3 EC50
pEC50: −log10 of the molar value.
Recorded pEC50, one value per entry.

# COMPOUND, TGT, pEC50
data = [
    ("O=C1C(=Cc2ccccc2)SC(=S)N1NS(=O)(=O)c1ccccc1 [SACC-0412060]", "recombinant tick kinin receptor (BMLK3) (Rhipicephalus microplus, UniProt Q9NHA4)", 5.02),
    ("Cc1ccc(S(=O)(=O)NN2C(=O)C(=Cc3ccc(C(=O)O)cc3)SC2=S)cc1 [SACC-0412064]", "recombinant tick kinin receptor (BMLK3) (Rhipicephalus microplus, UniProt Q9NHA4)", 4.89),
    ("Cc1ccc(C=C2SC(=S)N(NS(=O)(=O)c3ccc(C)cc3)C2=O)cc1 [SACC-0412061]", "recombinant tick kinin receptor (BMLK3) (Rhipicephalus microplus, UniProt Q9NHA4)", 6.01),
    ("Cc1ccc(S(=O)(=O)NN2C(=O)C(=Cc3ccc(F)cc3)SC2=S)cc1 [SACC-0412063]", "recombinant tick kinin receptor (BMLK3) (Rhipicephalus microplus, UniProt Q9NHA4)", 4.62),
]
